Listed here: items and their measured EC50.
# TEST DESCRIPTION: Luminescence Cell-Based Dose Response HTS to Identify Activators of Luciferase Translation or Activity in H4 […] Cells. [Related pubchem assays: 1829 (Project Summary), 1814 (Primary HTS)]
# Format: functional
Calls of active or inactive are those of the source.
MEASURE: EC50

| COMPOUND | ASSAY VALUE |
| --- | --- |
| Cc1ccc(-c2nc(NCCN3CCOCC3)c3ccccc3n2)cc1 | 21.1 µM (active) |
| Cc1ccc(-c2onc3ccc(C4OCCO4)cc23)cc1 | 28.4 µM (active) |
| Cc1ccc(NC(S)=NC(=NS(=O)(=O)c2ccccc2)c2ccccc2)cc1 | 16.5 µM (active) |
| Cc1nn(-c2ccccc2)c(C)c1C(=O)OCC(=O)N(C)C1CCS(=O)(=O)C1 (configuration not stated) | 12.5 µM (active) |
| Cc1ccc(-c2nnc(SCC#CCOC(=O)c3cccs3)o2)cc1 | 37.3 µM (active) |
| COc1cc(C(C)=O)ccc1OCc1cc(C(=O)N(C)CCC2CCCCO2)no1 (configuration not stated) | 80.8 µM (active) |
| COc1ccc2nc(-n3c(C)ccc3C)sc2c1 | 8.93 µM (active) |

###

# STUDY SYSTEM: Protein Tat (Human immunodeficiency virus type 1 group M subtype B (isolate HXB2)(HIV-1));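 further: tat binding to TAR RNA read out by fluorescence polarization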
# Sequence (P04608 whole entry): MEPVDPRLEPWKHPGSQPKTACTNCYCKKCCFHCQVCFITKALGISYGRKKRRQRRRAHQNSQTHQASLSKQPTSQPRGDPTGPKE
# Format: functional
The source made the active and inactive calls.
IC50 by entry:

| COMPOUND | STUDY SYSTEM | IC50 |
| --- | --- | --- |
| O=C1NC(=S)N/C1=C/c1ccc(-c2c(Br)cc([N+](=O)[O-])cc2Br)o1 | Protein Tat (Human immunodeficiency virus type 1 group M subtype B (isolate HXB2)(HIV-1)) | > 100 µM (active) |
| COCCCNC(=O)c1cccn2c(=O)c3cc4ccccc4cc3nc12 | Protein Tat (Human immunodeficiency virus type 1 group M subtype B (isolate HXB2)(HIV-1)) | > 100 µM (active) |
| S=C(Nc1ccc2c(c1)OCCO2)Nc1ccc2c(c1)OCO2 | Protein Tat (Human immunodeficiency virus type 1 group M subtype B (isolate HXB2)(HIV-1)) | > 100 µM (active) |
| Cc1cc(C(C)c2ccccc2)c(O)c(CN2CCOCC2)c1C (centres undefined) | Protein Tat (Human immunodeficiency virus type 1 group M subtype B (isolate HXB2)(HIV-1)) | > 100 µM (active) |

###

# STUDY SYSTEM: Sentrin-specific protease 7 (Homo sapiens, UniProt Q9BQF6);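 further: Luminescence-based dose-response confirmation of ultra-high-throughput screening hits, measuring inhibition of SENP7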
# Sequence (Q9BQF6 whole entry): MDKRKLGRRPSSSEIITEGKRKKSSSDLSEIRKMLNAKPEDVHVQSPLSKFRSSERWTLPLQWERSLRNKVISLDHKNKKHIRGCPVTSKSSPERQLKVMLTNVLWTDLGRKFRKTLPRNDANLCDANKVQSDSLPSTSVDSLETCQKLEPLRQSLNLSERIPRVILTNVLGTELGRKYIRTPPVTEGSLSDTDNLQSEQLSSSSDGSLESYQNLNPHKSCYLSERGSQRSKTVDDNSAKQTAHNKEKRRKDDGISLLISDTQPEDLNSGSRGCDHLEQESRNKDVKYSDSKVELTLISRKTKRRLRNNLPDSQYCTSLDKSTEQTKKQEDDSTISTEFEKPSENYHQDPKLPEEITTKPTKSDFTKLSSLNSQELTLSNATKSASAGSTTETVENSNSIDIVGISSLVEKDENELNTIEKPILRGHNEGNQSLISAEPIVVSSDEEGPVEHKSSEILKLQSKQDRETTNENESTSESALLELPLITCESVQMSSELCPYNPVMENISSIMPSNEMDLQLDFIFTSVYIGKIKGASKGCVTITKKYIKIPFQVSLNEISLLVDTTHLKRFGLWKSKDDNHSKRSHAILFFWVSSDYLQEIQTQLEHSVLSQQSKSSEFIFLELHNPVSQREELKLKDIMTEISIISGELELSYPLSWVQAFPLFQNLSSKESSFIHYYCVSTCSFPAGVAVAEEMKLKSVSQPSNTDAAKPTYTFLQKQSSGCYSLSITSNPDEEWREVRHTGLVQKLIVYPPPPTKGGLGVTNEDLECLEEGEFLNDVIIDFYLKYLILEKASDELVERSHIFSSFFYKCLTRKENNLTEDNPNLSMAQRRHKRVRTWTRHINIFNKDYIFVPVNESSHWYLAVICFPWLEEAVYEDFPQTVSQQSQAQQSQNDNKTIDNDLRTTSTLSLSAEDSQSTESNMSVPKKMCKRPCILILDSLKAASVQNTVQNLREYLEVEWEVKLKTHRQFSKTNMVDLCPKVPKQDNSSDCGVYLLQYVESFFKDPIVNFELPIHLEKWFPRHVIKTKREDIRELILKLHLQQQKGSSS
# Format: functional
Calls of active or inactive are those of the source.

| MOLECULE | IC50 |
| --- | --- |
| O=C(Nc1ccc(C2CC2(Cl)Cl)cc1)c1cccc([N+](=O)[O-])c1 (stereo not given) | 5.14 µM (active) |
| Cc1csc(N/N=C/c2ccc(O)c([N+](=O)[O-])c2)n1 | 4.19 µM (active) |
| COc1ccc(/C=N/N2CCN(c3ccccc3OC)CC2)cc1Br | 7.1 µM (active) |
| CCCCCc1ccc(-c2ccc(OC)cc2)nc1 | 9.32 µM (active) |
| Oc1[nH]c2ccccc2c1N=Nc1ccc(F)cc1 | 1.51 µM (active) |

###

# STUDY SYSTEM: Rac GTPase-activating protein 1 (Homo sapiens, UniProt Q9H0H5)
# Sequence (Q9H0H5 whole entry): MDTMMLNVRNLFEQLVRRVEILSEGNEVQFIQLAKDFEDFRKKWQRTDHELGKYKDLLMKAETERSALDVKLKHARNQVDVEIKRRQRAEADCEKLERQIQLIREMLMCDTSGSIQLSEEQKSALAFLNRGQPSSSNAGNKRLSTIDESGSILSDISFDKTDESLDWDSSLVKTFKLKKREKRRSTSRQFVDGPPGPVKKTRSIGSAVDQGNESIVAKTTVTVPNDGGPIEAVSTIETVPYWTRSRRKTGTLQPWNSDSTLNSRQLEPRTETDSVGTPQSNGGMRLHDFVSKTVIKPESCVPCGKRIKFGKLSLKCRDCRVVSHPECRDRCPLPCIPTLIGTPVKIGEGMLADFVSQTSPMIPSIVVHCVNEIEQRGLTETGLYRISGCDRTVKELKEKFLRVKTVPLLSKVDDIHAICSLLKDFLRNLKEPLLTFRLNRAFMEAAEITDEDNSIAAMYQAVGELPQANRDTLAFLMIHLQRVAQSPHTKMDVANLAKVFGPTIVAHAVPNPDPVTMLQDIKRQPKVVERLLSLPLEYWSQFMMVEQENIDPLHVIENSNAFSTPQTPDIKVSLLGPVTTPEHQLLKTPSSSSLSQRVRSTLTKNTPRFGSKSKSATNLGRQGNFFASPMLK
# TEST DESCRIPTION: blockers of MgcRacGAP-driven Rac1 GTP hydrolysis – biochemical, ADP Hunter fluorescence, primary and confirmatory, confirmation (AID 624330)
# Type: functional
Calls of active or inactive are those of the source.
List of IC50 values.
MEASURE: IC50

| COMPOUND | MEASURE | ASSAY VALUE |
| --- | --- | --- |
| COc1ccc(NC2CCCN(C(=O)CCN3CCCC3=O)C2)cc1OC (centres undefined) | IC50 | 293 µM (active) |
| Cc1nc2ncccn2c1-c1csc(Nc2ccc(O)cc2)n1 | IC50 | 14.3 µM (active) |
| CN(C)CCNc1ccc2nnn3c4ccc(O)cc4c(=O)c1c23 | IC50 | 62.6 µM (active) |
| CC(=O)Nc1nnc(S)s1 | IC50 | 66.2 µM (active) |
| CC1=NN(C(N)=S)C(=O)C1N=Nc1ccc(O)cc1 (centres undefined) | IC50 | 16.6 µM (active) |
| CCOc1cc(CN2CCN(C(=O)CC(C)C)CC2)ccc1OC | IC50 | 155 µM (active) |
| C/C(CC(=O)Nc1ccc(N(C)C)cc1)=N\NC(=O)c1ccncc1 | IC50 | 56.8 µM (active) |
| C/C(=N\NC(=O)c1ccc(O)cc1)c1ccc2c(c1)Nc1ccccc1S2 | IC50 | 35.3 µM (active) |
| O=C(CNS(=O)(=O)c1ccc([N+](=O)[O-])cc1)N/N=C/c1ccc(O)cc1O | IC50 | 128 µM (active) |
| CC1CCCN(CCOc2ccc3ccccc3c2Br)C1 (centres undefined) | IC50 | 142 µM (active) |
| O=[N+]([O-])c1cc([N+](=O)[O-])c2nonc2c1Nc1ccccc1O | IC50 | 76.9 µM (active) |
| CC1Cc2ccccc2N1C(=O)CNCCCN(C)C (centres undefined) | IC50 | 76.9 µM (active) |
| O=C1C(SCCO)=C(SCCO)C(=O)c2ccccc21 | IC50 | 32.5 µM (active) |
| COC(=O)C1C(O)=C(/C=N/c2ccc(N)cc2)C(=O)CC1(C)C (centres undefined) | IC50 | 40 µM (active) |

###

Below are AC50 values measured for UniProtKB P10635.
Sequence (P10635 whole entry): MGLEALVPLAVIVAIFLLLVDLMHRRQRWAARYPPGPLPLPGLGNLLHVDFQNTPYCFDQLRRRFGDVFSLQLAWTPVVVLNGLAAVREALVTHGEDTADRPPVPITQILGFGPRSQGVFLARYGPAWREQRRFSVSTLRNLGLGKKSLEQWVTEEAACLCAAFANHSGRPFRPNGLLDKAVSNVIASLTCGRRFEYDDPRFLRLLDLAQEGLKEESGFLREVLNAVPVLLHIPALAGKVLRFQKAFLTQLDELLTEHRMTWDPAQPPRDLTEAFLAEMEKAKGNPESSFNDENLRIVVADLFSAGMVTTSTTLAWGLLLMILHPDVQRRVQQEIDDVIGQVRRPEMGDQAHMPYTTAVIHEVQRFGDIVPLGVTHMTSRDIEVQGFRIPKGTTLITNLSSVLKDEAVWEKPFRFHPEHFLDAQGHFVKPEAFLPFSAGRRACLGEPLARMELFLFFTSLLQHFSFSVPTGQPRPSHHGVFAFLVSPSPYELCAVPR

| MOLECULE | AC50 |
| --- | --- |
| CCO[C@H]1O[C@@H]([C@H](COCc2ccccc2)OCc2ccccc2)[C@@H](OCc2ccccc2)[C@H]1O | 15.8 µM (inconclusive) |
| CC(C)C[C@@H](N)C(=O)Nc1ccc2ccccc2c1 | 3.16 µM (inconclusive) |
| O=C(c1cc(C(F)(F)F)cc(C(F)(F)F)c1)N1CCC2(CCCN(c3ccncc3)C2)CC1 | 15.8 µM (inconclusive) |
| CCCCN1C(=O)CN(CCc2ccccc2)C(=O)C1c1ccc(OC)cc1 (configuration not stated) | 39.8 µM (inconclusive) |
| O=C(/C=C/c1cccnc1)c1ccc(NC(=O)c2cccc(Br)c2)cc1 | 2 µM (inconclusive) |
| COc1ccc(C(=O)NCC(c2ccc(F)cc2)N2CCOCC2)cc1S(=O)(=O)N1CCCC1 (configuration not stated) | 15.8 µM (inconclusive) |
| CCN1C/C(=C\c2cccc(C)c2)c2nc3ccccc3c(C(=O)O)c2C1 | 17.8 µM (inconclusive) |

###

Entries and their measured AC50 follow.
# STUDY SYSTEM: Cytochrome P450 1A2 (Homo sapiens, UniProt P05177);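 further: PubChem cytochrome P450 panel assay, CYP1A2 panel member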
# Sequence (P05177 whole entry): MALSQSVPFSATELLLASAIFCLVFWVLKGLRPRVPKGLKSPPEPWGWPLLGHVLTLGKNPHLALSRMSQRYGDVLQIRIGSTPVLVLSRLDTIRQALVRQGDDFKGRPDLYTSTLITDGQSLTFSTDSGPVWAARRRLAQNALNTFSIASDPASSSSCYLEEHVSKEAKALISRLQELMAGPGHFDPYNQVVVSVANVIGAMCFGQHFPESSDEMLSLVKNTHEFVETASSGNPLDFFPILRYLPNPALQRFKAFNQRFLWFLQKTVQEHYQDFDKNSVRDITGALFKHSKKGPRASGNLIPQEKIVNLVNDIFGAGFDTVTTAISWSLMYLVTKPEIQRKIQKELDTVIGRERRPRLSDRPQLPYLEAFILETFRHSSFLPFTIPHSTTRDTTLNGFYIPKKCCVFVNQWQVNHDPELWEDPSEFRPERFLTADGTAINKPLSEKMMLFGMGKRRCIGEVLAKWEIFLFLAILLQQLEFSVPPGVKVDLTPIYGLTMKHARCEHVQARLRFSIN

| COMPOUND | AC50 |
| --- | --- |
| N#Cc1ccccc1Sc1ccccc1N | 22.4 µM (inconclusive) |
| Cc1cc(Cc2cc(C)c(N)cc2N)c(N)cc1N | 2 µM (inconclusive) |
| Cn1nc(C(F)(F)F)c(C(=O)Nc2ccc(F)cc2F)c1Sc1cccc(C(F)(F)F)c1 | 15.8 µM (inconclusive) |
| CCN(C(=O)c1cnc(N2CCN(c3ncccn3)CC2)c2ccccc12)c1cccc(Cl)c1 | 15.8 µM (inconclusive) |
| O=C(/C=C/c1cccnc1)c1ccc(NC(=O)c2cccc(Br)c2)cc1 | 14.1 µM (inconclusive) |
| CC(C)(C)c1ccc(C(=O)NCc2ccc(Cl)cc2)cc1 | 2 µM (inconclusive) |
| CCC/C=C(\CCC)C(NS(=O)(=O)c1cccc2cccnc12)c1ccc(C(=O)OC)cc1 (stereo not drawn) | 6.31 µM (inconclusive) |
| COc1cc(NC(=O)c2ccccc2)c(OC)cc1NC(=O)CN1CCN(c2ccccn2)CC1 | 25.1 µM (inconclusive) |

Numbers sourced from ChEMBL document CHEMBL1201862.
